Origin of values: patent US9663478B2

- Test system: H37Rv
The label YES is reserved for MIC strictly under 0.4 µg/mL; NO covers values equal to or above it.

Example cases with answers are listed next.
| COMPOUND | CAT |
| --- | --- |
| CN(Cc1ccc(C(F)(F)F)cc1)c1n[n+]([O-])c2cc3c(cc2[n+]1[O-])CCC3 | YES |
| [O-][n+]1nc(NC2(c3ccc(F)cc3)CC2)[n+]([O-])c2cc3c(cc21)CCC3 | NO |
| COc1cccc(C2CCN(c3n[n+]([O-])c4cc5c(cc4[n+]3[O-])CCC5(C)C)C2)c1OC (stereo not shown) | NO |
| [O-][n+]1nc(N2CCC(c3ccccc3F)C2)[n+]([O-])c2cc3c(cc21)CCC3 (stereo not shown) | YES |
| COc1ccc(OC)c(C2CCN(c3n[n+]([O-])c4cc5c(cc4[n+]3[O-])CCC5)C2)c1 (stereo not shown) | YES |

Regarding CN(c1n[n+]([O-])c2cc3c(cc2[n+]1[O-])CCC3)C1(c2ccc(F)cc2)CC1 , kindly confirm whether its MIC is beneath 0.4 µg/mL. NO

Field: below-cutoff. Rule: recorded MIC strictly less than 0.4 µg/mL. Subject: CN(Cc1ccccn1)c1n[n+]([O-])c2cc3c(cc2[n+]1[O-])CCC3 NO

Please indicate whether the reported MIC of CC(C)(Nc1n[n+]([O-])c2cc3c(cc2[n+]1[O-])CCC3)c1ccc(F)cc1 is strictly below 0.4 µg/mL. NO

Bench note: check whether CN(Cc1ccc(F)cc1)c1n[n+]([O-])c2cc3c(cc2[n+]1[O-])CCC3 shows MIC below 0.4 µg/mL YES
